assay.text: Three-treatment crossover pharmacokinetics of IN nalmefene, three dosing regimens (Example 13)
condition.label: human, plasma, other: intranasal (IN spray), 6 mg, […], Mean; Time 8.00; T3: 6 mg nalmefene HCl IN, two 0.1 mL sprays in one nostril

chem.smiles	concentration at 8 h [ng/mL]
C=C1CC[C@@]2(O)[C@H]3Cc4ccc(O)c5c4[C@@]2(CCN3CC2CC2)[C@H]1O5	2.69

* * *

assay.text: Three-treatment crossover pharmacokinetics of IN nalmefene, three dosing regimens (Example 13)
condition.label: human, plasma, other: intranasal (IN spray), 6 mg, […], Median; Time 0.125; T3: 6 mg nalmefene HCl IN, two 0.1 mL sprays in one nostril
property.name: concentration at […] (ng/mL)

chem.smiles	property.name	unit.of.measure	measured.result
C=C1CC[C@@]2(O)[C@H]3Cc4ccc(O)c5c4[C@@]2(CCN3CC2CC2)[C@H]1O5	concentration at […]	ng/mL	4.96
